Molecular target: KRAS G13D (Homo sapiens, UniProt P01116+P62937, G13D)
Sequence (P01116 1-169 isoform P01116-2 G13D limits assumed): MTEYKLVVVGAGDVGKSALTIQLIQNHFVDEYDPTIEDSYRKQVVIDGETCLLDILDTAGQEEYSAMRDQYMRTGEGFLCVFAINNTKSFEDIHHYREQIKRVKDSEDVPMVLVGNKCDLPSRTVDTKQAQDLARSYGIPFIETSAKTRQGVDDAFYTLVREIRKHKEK
Sequence (P62937 whole entry): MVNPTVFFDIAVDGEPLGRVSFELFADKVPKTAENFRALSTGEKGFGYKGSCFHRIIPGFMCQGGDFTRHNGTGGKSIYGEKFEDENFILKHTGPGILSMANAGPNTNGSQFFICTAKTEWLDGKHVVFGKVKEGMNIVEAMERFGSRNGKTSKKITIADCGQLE
Test: Ras-Raf disruption / FRET / MOA assay (BRAF RBD)
Format: biochemical
Conditions: KRAS G13D FRET data IC50, Ras-Raf disruption, with Cyclophilin A
Description: Disruption of […] Ras-binding Domain (BRAF^RBD) Interaction with K-Ras by Compounds of the Invention (also Called a FRET Assay or an MOA Assay) Note—The following protocol describes a procedure for monitoring disruption of K-Ras G12C (GMP-PNP) binding to BRAF^RBD by a compound of the invention. This protocol may also be executed substituting other Ras proteins or nucleotides, such as K-Ras G12D and K-Ras G13D. […]
pIC50: −log10 of the molar value.
measured-property: pIC50

{"columns": ["compound", "pIC50"],
 "data": [
  ["CCn1c(-c2cccnc2[C@H](C)OC)c2c3cc(ccc31)-c1cc(O)cc(c1)C[C@H](NC(=O)[C@H](C(C)C)N(C)C(=O)CN(C)C(=O)[C@H]1CN1CCCN1CCOC1=O)C(=O)N1CCC[C@H](N1)C(=O)OCC(C)(C)C2 (some centres unmarked)", "6.00 to 7.00"],
  ["CCn1c(-c2cccnc2[C@H](C)OC)c2c3cc(ccc31)-c1cc(O)cc(c1)C[C@H](NC(=O)[C@H](C(C)C)N(C)C(=O)[C@H]1CCCN1C(=O)[C@@H]1CN1)C(=O)N1CCC[C@H](N1)C(=O)OCC(C)(C)C2", "6.00 to 7.00"],
  ["CCn1c(-c2cccnc2[C@H](C)OC)c2c3cc(ccc31)-c1cc(cc(C(F)F)c1)C[C@H](NC(=O)[C@H](C1CCCC1)N(C)C(=O)CN(C)C(=O)[C@@H]1N[C@@H]1C1CC1)C(=O)N1CCC[C@H](N1)C(=O)OCC(C)(C)C2", "5.00 to 6.00"],
  ["CCn1c(-c2cccnc2[C@H](C)OC)c2c3cc(ccc31)-c1cc(O)cc(c1)C[C@H](NC(=O)[C@H](C1CCCC1)N(C)C(=O)[C@@H](C)N(C)C(=O)[C@@H]1N[C@@H]1C1CC1)C(=O)N1CCC[C@H](N1)C(=O)OCC(C)(C)C2", "< 5.00"],
  ["CCn1c(-c2cccnc2[C@H](C)OC)c2c3cc(ccc31)-c1cc(O)cc(c1)C[C@H](NC(=O)[C@H](C(C)C)N(C)C(=O)CN(C)C(=O)[C@@H]1N[C@@H]1C(C)C)C(=O)N1CCC[C@H](N1)C(=O)OCC(C)(C)C2", "7.00 to 8.00"]
]}

Batch lookup, pIC50 per entry.
1. CCn1c(-c2cccnc2[C@H](C)OC)c2c3cc(ccc31)-c1cc(O)cc(c1)C[C@H](NC(=O)[C@H](C(C)C)N(C)C(=O)CN(C)C(=O)[C@H]1N[C@H]1C1COC1)C(=O)N1CCC[C@H](N1)C(=O)OCC(C)(C)C2
2. CCn1c(-c2cccnc2[C@H](C)OC)c2c3cc(ccc31)-c1cc(O)cc(c1)C[C@H](NC(=O)[C@H](C(C)C)N(C)C(=O)CN(C)C(=O)[C@@H]1CN1CCCN1CCCC1=O)C(=O)N1CCC[C@H](N1)C(=O)OCC(C)(C)C2 (some centres unmarked)

7.00 to 8.00
6.00 to 7.00

Return pIC50 (reported value) for this compound: CCn1c(-c2cccnc2[C@H](C)OC)c2c3cc(ccc31)-c1cc(O)cc(c1)C[C@H](NC(=O)[C@H](C(C)C)N(C)C(=O)CN(C)C(=O)[C@H]1N[C@H]1C1CCC1)C(=O)N1CCC[C@H](N1)C(=O)OCC(C)(C)C2
7.00 to 8.00

Recorded values, source patent US20230233569A1.
